- System: AncSZ;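 also: 11-residue human phosphosite peptides and single-mutation variants displayed on the E. coli surface, counted by deep sequencing, each peptide's frequency after selection divided by its frequency in the unselected input library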;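 also: frequency after pTyr selection over input frequency; kinase dosed for 20-30% of maximal phosphorylation in three min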
- Method: phosphorylation enrichment, bacterial display (enrichment ratio); higher = better substrate or ligand; peptides without Tyr show the background
Value Type: phosphorylation enrichment

# Residue String, Value Type, Experimental Result
measured = [
    ("DFCDLYGGEKF [PTPN11_Y66_Y63C_YF]", "phosphorylation enrichment", 1.03),
    ("TLQSMSGCDVG [HLA-B_Y123_Y123S]", "phosphorylation enrichment", 0.677),
    ("QMVGMYASSYM [AVPR2_Y124]", "phosphorylation enrichment", 1.27),
    ("DLITAYRAHGF [PDHA1_Y118_H113D]", "phosphorylation enrichment", 0.543),
    ("NTVLGYFIGCI [GARS1_Y408_R412C]", "phosphorylation enrichment", 1.19),
    ("SVVVPYEPPEL [TP53_Y220_V225L]", "phosphorylation enrichment", 0.905),
    ("ANVKWYRNGRE", "phosphorylation enrichment", 0.867),
    ("EDSEFYRAFEE [CASQ2_Y179_K180R_YF]", "phosphorylation enrichment", 1.15),
    ("RKLVDYDSAQH [BIN1_Y150_R154Q]", "phosphorylation enrichment", 0.548),
    ("PTTMTYFPHFD [HBA1_Y43_K41M]", "phosphorylation enrichment", 0.823),
    ("SKDSAYVTWEP", "phosphorylation enrichment", 0.988),
    ("LIHLHYIRKDY [BBS4_Y43]", "phosphorylation enrichment", 1.21),
    ("SDYSSYARTSI [TERT_Y949]", "phosphorylation enrichment", 0.792),
    ("LNPVVYTLRNA [OR4C12_Y285]", "phosphorylation enrichment", 1.26),
]

Hello, the source for this data is the supplement of paper PMC10065799, in case you need it.
